- System: OVCAR-4 ovarian
- ASSAY_OVERVIEW: NCI-60 one-dose screen, 48 h (100 = growth as untreated, 0 = no growth, -100 = all killed)
- CONDITION_NOTES: 10 µM unless noted
This is part of a sample that, as a whole, favours compounds with a hit. Of some 83,000 tested, about 20% had one in any assay.
// values below are reported growth
Note: unit % is implicit; provide only the numeric part.

Would you please look over these solved cases?
CCCCCCNC(=O)Oc1ccc(/C(=C(/C)c2ccc(Cl)cc2)c2ccc(OCCN3CCCC3)cc2)cc1 | 54.6
CS(=O)(=O)c1nccc(-c2c(-c3ccc(F)c(OCCc4ccc(F)cc4)c3)nc3sccn23)n1 | 51.2
Cc1cc(Cl)cc(NS(=O)(=O)c2ccc(-c3cnc(C4CC4)o3)cc2)c1 | 66.2
O=C1NC(=O)/C(=C/c2ccc(OCc3cc4ccccc4nc3Cl)cc2)S1 | 93.5
CN(c1ccc(Cl)cc1)S(=O)(=O)c1ccc(-c2cnc(C3CC3)o2)cc1 | 54.7

Now turn to the next compound.
Name the recorded growth for CCOC(=O)c1nn(-c2ccccc2)c(=O)c2c(N)c(C#N)c(-c3cccs3)cc12 .
36.7

----------
- System: UACC-257 melanoma
- ASSAY_OVERVIEW: NCI-60 one-dose screen, 48 h (100 = growth as untreated, 0 = no growth, -100 = all killed)
- CONDITION_NOTES: 10 µM
The panel holds about 83,000 compounds, 20% with a hit somewhere; the sample as a whole holds those more often.
Rule: measured growth below 50% gets y; anything equal to or greater than 50% gets n.

C#C[C@]1(O)CC[C@H]2[C@@H]3CC=C4c5sc(Nc6ccncc6)nc5CC[C@]4(C)[C@H]3CC[C@@]21C | y

Does this molecule meet the criterion growth < 50%? COc1ccc(N)cc1C(=O)Nc1cccc(-c2cc(=O)c3c(OC)c(OC)c(OC)cc3o2)c1
n

Does this molecule meet the criterion growth < 50%? O=[N+]([O-])c1ccc(-c2nnc(SCc3ccc(O)c4ncccc34)n2-c2ccccc2)cc1
y

Does this molecule meet the criterion growth < 50%? NS(=O)(=O)Oc1ccc2nc(Nc3ccc(F)c(F)c3)ccc2c1
n

Does this molecule meet the criterion growth < 50%? CCCCCCNC(=O)Oc1ccc(/C(=C(\C)c2ccc(Cl)cc2)c2ccc(OCCN(C)C)cc2)cc1
y

Does this molecule meet the criterion growth < 50%? Nc1nc(N)c2c(n1)NC(c1ccccc1)CC(c1ccc(Nc3nc(NCCO)nc(Nc4ccc(Cl)cc4)n3)cc1)=N2 (configuration not stated)
n

----------
- System: OVCAR-5 ovarian
- ASSAY_OVERVIEW: NCI-60 one-dose screen, 48 h (100 = growth as untreated, 0 = no growth, -100 = all killed)
- CONDITION_NOTES: 10 µM unless noted
Compounds without any hit were thinned out: in the full panel of roughly 83,000, 20% have a hit.
// values below are reported growth
Note: unit % is implicit; provide only the numeric part.

Would you please look over these solved cases?
Cc1cn(-c2cc(NC(=O)c3cncc(C#Cc4cnc5ccc(OCCCS(C)(=O)=O)nn45)c3)cc(C(F)(F)F)c2)cn1 | 22.6
Nc1nc(N)c2c(n1)NC(c1ccccc1)CC(c1ccc(Nc3nc(NCCO)nc(Nc4ccc(Cl)cc4)n3)cc1)=N2 (stereo not drawn) | 111
CCN1C(=O)N(CC)C2SC(N/N=C/c3ccc(OC)cc3)=NC21 (stereo not drawn) | 36.8
CCC(=O)Nc1cc(Nc2cc(NC3CC3)n3ncc(C#N)c3n2)ccc1C | 18.4
O=C1[C@H]2Cc3c([nH]c4ccccc34)[C@@H](c3c(Cl)cccc3Cl)N2C(=O)CN1C1CCN(Cc2ccccc2)CC1 | 107
C/C(=N\NC(=O)CSc1nc2sc3c(c2c(=O)n1-c1ccccc1)CCC(C)C3)c1ccc(Cl)cc1 (stereo not drawn) | 50
COc1ccc(Cn2cc3c(c2-c2ccccc2)CCCc2cnoc2-3)cc1[N+](=O)[O-] | 93.4
O=C(c1cccc(F)c1)n1ccc2cc(NC(=S)Nc3cccnc3)ccc21 | 101
CCOC(=O)C1=C(C)Nc2nc3ccccc3n2C1c1cccc(Br)c1 (stereo not drawn) | 97.1
O=C(/C=C1\C=CN(CCCCO)c2ccccc21)n1ccc2ccccc21 | 102

Now turn to the next molecule.
Name the recorded growth for C#C[C@]1(O)CC[C@H]2[C@@H]3CC=C4c5sc(Nc6nc(C)cc(OC)n6)nc5CC[C@]4(C)[C@H]3CC[C@@]21C .
78.8
